Test: Phase 1 dose escalation study in healthy postmenopausal women, plasma pharmacokinetics
Assay type: in vivo, human
Conditions: female, human, plasma, oral; 200-1000 mg, Day 7; read-out: median t1/2 across dose groups
Structures can show the parent of a compound that is named as a salt.
OBSERVED_PROPERTY: half-life

molecule CCNCCc1ccc(CN(CC)c2cc(OC)ccc2[C@@H]2CCc3cc(O)ccc3C2)cc1 [RAD1901, dihydrochloride] , half-life observed: 37.5 to 42.3 h

====

Experiment: Phase 1 dose escalation study in healthy postmenopausal women, plasma pharmacokinetics
Type: in vivo, human
Conditions: female, human, plasma, oral; 200 mg, Day 7; read-out: Cmax Geo-Mean
Method: The subjects were treated with placebo or at least one oral dose daily after a light breakfast for 7 days at dose levels of 200 mg, 500 mg, 750 mg and 1000 mg, respectively. A series of blood samples were taken during the study for the analysis of RAD1901 in plasma. Blood samples of 5 mL each were taken via an indwelling IV catheter or by direct venipuncture into tubes containing K3-EDTA as anticoagulant. Steady state was achieved by day 5 of treatment. […]
Counter-ions that a name gives are not always drawn.
OBSERVED_PROPERTY: Cmax (ng/mL)
A number alone suffices; assume ng/mL.

compound CCNCCc1ccc(CN(CC)c2cc(OC)ccc2[C@@H]2CCc3cc(O)ccc3C2)cc1 [RAD1901, dihydrochloride] , Cmax observed: 49.8

====

Test: RAD1901 levels in plasma, tumor and brain of mice implanted with MCF7 cells (LC-MS/MS)
Assay type: in vivo
Conditions: mouse, tumor, oral, 10 mg/kg, 40 days; read-out: T/P Ratio
Structures can show the parent of a compound that is named as a salt.
OBSERVED_PROPERTY: Kp at 40 days
// return just the number, without any unit appended

compound CCNCCc1ccc(CN(CC)c2cc(OC)ccc2[C@@H]2CCc3cc(O)ccc3C2)cc1 [RAD1901, dihydrochloride] , Kp at 40 days observed: 19.4

====

Experiment: RAD1901 levels in plasma, tumor and brain of mice implanted with MCF7 cells (LC-MS/MS)
Assay type: in vivo
Conditions: mouse, tumor, oral; 10 mg/kg, 40 days; read-out: Tumor
Counter-ions that a name gives are not always drawn.
OBSERVED_PROPERTY: concentration at 40 days (ng/mL)
A number alone suffices; assume ng/mL.

molecule CCNCCc1ccc(CN(CC)c2cc(OC)ccc2[C@@H]2CCc3cc(O)ccc3C2)cc1 [RAD1901, dihydrochloride] , concentration at 40 days observed: 757

====

Assay: RAD1901 levels in plasma, tumor and brain of mice implanted with MCF7 cells (LC-MS/MS)
Format: in vivo
Conditions: mouse, tumor, oral, 3 mg/kg, 40 days; read-out: T/P Ratio
Where a name gives a salt, the structure may show the parent alone.
OBSERVED_PROPERTY: Kp at 40 days
// return just the number, without any unit appended

molecule CCNCCc1ccc(CN(CC)c2cc(OC)ccc2[C@@H]2CCc3cc(O)ccc3C2)cc1 [RAD1901, dihydrochloride] , Kp at 40 days observed: 18.8

====

Assay: RAD1901 levels in plasma, tumor and brain of mice implanted with MCF7 cells (LC-MS/MS)
Type: in vivo
Conditions: mouse, plasma, oral; 3 mg/kg, 40 days; read-out: Plasma
Counter-ions that a name gives are not always drawn.
OBSERVED_PROPERTY: concentration at 40 days (ng/mL)
A number alone suffices; assume ng/mL.

compound CCNCCc1ccc(CN(CC)c2cc(OC)ccc2[C@@H]2CCc3cc(O)ccc3C2)cc1 [RAD1901, dihydrochloride] , concentration at 40 days observed: 9

====

Experiment: Phase 1 dose escalation study in healthy postmenopausal women, plasma pharmacokinetics
Assay type: in vivo, human
Details: female, human, plasma, oral; 1000 mg, Day 7; read-out: AUC0-tau Geo-Mean
Structures can show the parent of a compound that is named as a salt.
OBSERVED_PROPERTY: AUC (ng·h/mL)
A number alone suffices; assume ng·h/mL.

molecule CCNCCc1ccc(CN(CC)c2cc(OC)ccc2[C@@H]2CCc3cc(O)ccc3C2)cc1 [RAD1901, dihydrochloride] , AUC observed: 8290

====

Experiment: Phase 1 dose escalation study in healthy postmenopausal women, plasma pharmacokinetics
Assay type: in vivo, human
Details: female, human, plasma, oral; 500 mg, Day 7; read-out: t1/2 Geo-Mean (converted)
Counter-ions that a name gives are not always drawn.
OBSERVED_PROPERTY: half-life (h)
A number alone suffices; assume h.

compound CCNCCc1ccc(CN(CC)c2cc(OC)ccc2[C@@H]2CCc3cc(O)ccc3C2)cc1 [RAD1901, dihydrochloride] , half-life observed: 37.5

====

Experiment: RAD1901 levels in plasma, tumor and brain of mice implanted with MCF7 cells (LC-MS/MS)
Assay type: in vivo
Settings: Balb/C-Nude, mouse, tumor, oral, lower dose levels; read-out: tumor concentrations higher than in plasma
Structures can show the parent of a compound that is named as a salt.
OBSERVED_PROPERTY: Kp at 40 days

compound CCNCCc1ccc(CN(CC)c2cc(OC)ccc2[C@@H]2CCc3cc(O)ccc3C2)cc1 [RAD1901, dihydrochloride] , Kp at 40 days observed: 20 to 30

====

Assay: Phase 1 dose escalation study in healthy postmenopausal women, plasma pharmacokinetics
Format: in vivo, human
Conditions: female, human, plasma, oral; 1000 mg, Day 7; read-out: tmax Median
Structures can show the parent of a compound that is named as a salt.
OBSERVED_PROPERTY: Tmax (h)
A number alone suffices; assume h.

molecule CCNCCc1ccc(CN(CC)c2cc(OC)ccc2[C@@H]2CCc3cc(O)ccc3C2)cc1 [RAD1901, dihydrochloride] , Tmax observed: 4

====

Assay: RAD1901 levels in plasma, tumor and brain of mice implanted with MCF7 cells (LC-MS/MS)
Assay type: in vivo
Settings: mouse, tumor, oral, 60 mg/kg, 40 days; read-out: T/P Ratio
Where a name gives a salt, the structure may show the parent alone.
OBSERVED_PROPERTY: Kp at 40 days
// return just the number, without any unit appended

compound CCNCCc1ccc(CN(CC)c2cc(OC)ccc2[C@@H]2CCc3cc(O)ccc3C2)cc1 [RAD1901, dihydrochloride] , Kp at 40 days observed: 33.3

====

Test: RAD1901 levels in plasma, tumor and brain of mice implanted with MCF7 cells (LC-MS/MS)
Assay type: in vivo
Conditions: mouse, plasma, oral; 0.3 mg/kg, 40 days; read-out: Plasma
From the text: A similar tumor to plasma ratio was also observed at lower dose levels where tumor concentrations were approximately 20-30 fold higher than in plasma.
Where a name gives a salt, the structure may show the parent alone.
OBSERVED_PROPERTY: concentration at 40 days (ng/mL)
A number alone suffices; assume ng/mL.

molecule CCNCCc1ccc(CN(CC)c2cc(OC)ccc2[C@@H]2CCc3cc(O)ccc3C2)cc1 [RAD1901, dihydrochloride] , concentration at 40 days observed: 2

====

Assay: Phase 1 dose escalation study in healthy postmenopausal women, plasma pharmacokinetics
Assay type: in vivo, human
Conditions: female, human, plasma, oral; 750 mg, Day 7; read-out: AUC0-tau Geo-Mean
Structures can show the parent of a compound that is named as a salt.
OBSERVED_PROPERTY: AUC (ng·h/mL)
A number alone suffices; assume ng·h/mL.

compound CCNCCc1ccc(CN(CC)c2cc(OC)ccc2[C@@H]2CCc3cc(O)ccc3C2)cc1 [RAD1901, dihydrochloride] , AUC observed: 4610

====

Experiment: Phase 1 dose escalation study in healthy postmenopausal women, plasma pharmacokinetics
Format: in vivo, human
Settings: female, human, plasma, oral; 200 mg, Day 7; read-out: AUC0-tau Geo-Mean
Counter-ions that a name gives are not always drawn.
OBSERVED_PROPERTY: AUC (ng·h/mL)
A number alone suffices; assume ng·h/mL.

compound CCNCCc1ccc(CN(CC)c2cc(OC)ccc2[C@@H]2CCc3cc(O)ccc3C2)cc1 [RAD1901, dihydrochloride] , AUC observed: 670

====

Test: Phase 1 dose escalation study in healthy postmenopausal women, plasma pharmacokinetics
Format: in vivo, human
Conditions: female, human, plasma, oral; 500 mg, Day 7; read-out: tmax Median
Counter-ions that a name gives are not always drawn.
OBSERVED_PROPERTY: Tmax (h)
A number alone suffices; assume h.

compound CCNCCc1ccc(CN(CC)c2cc(OC)ccc2[C@@H]2CCc3cc(O)ccc3C2)cc1 [RAD1901, dihydrochloride] , Tmax observed: 4

====

Experiment: Phase 1 dose escalation study in healthy postmenopausal women, plasma pharmacokinetics
Assay type: in vivo, human
Settings: female, human, plasma, oral; 200 mg, Day 7; read-out: tmax Median
Structures can show the parent of a compound that is named as a salt.
OBSERVED_PROPERTY: Tmax (h)
A number alone suffices; assume h.

compound CCNCCc1ccc(CN(CC)c2cc(OC)ccc2[C@@H]2CCc3cc(O)ccc3C2)cc1 [RAD1901, dihydrochloride] , Tmax observed: 3

====

Assay: RAD1901 levels in plasma, tumor and brain of mice implanted with MCF7 cells (LC-MS/MS)
Type: in vivo
Settings: mouse, tumor, oral; 30 mg/kg, 40 days; read-out: Tumor
From the text: A similar tumor to plasma ratio was also observed at lower dose levels where tumor concentrations were approximately 20-30 fold higher than in plasma.
Counter-ions that a name gives are not always drawn.
OBSERVED_PROPERTY: concentration at 40 days (ng/mL)
A number alone suffices; assume ng/mL.

molecule CCNCCc1ccc(CN(CC)c2cc(OC)ccc2[C@@H]2CCc3cc(O)ccc3C2)cc1 [RAD1901, dihydrochloride] , concentration at 40 days observed: 3880
